Tested on: Abutilon theophrasti (ABUTH)
Assay: Pre-emergence herbicidal test
Type: in vivo
Conditions: 1000 g/ha, evaluated after 13 days
Here the recorded percentage damage caused to the plant, five-point scale, ABUTH is given for each entry.
measured-endpoint: percentage damage caused to the plant, five-point scale, ABUTH

* CS(=O)(=O)c1cccc2c1c(=O)c(C(=O)OC1CCOC1)nn2-c1ccc(OC(F)(F)F)cc1 (stereo not drawn) [Compound P70] | 0 (0=0%)
* O=C(O)c1nn(-c2ccc(OC(F)(F)F)cc2)c2cccc(S(=O)(=O)CC(F)(F)F)c2c1=O [Compound P35] | 1 (1=10-20%)
* CCOC(=O)c1nn(-c2ccc(OC(F)(F)F)cc2)c2ccc(Br)c(SC)c2c1=O [Compound P53] | 1 (1=10-20%)
* CCOC(=O)c1nn(-c2ccc(OC(F)(F)F)cc2)c2cccc(SCC)c2c1=O [Compound P23] | 0 (0=0%)
* COC(=O)COC(=O)c1nn(-c2ccc(OC(F)(F)F)cc2)c2cccc(S(C)(=O)=O)c2c1=O [Compound P81] | 0 (0=0%)
* CCCCCCCCCCCOC(=O)c1nn(-c2ccc(OC(F)(F)F)cc2)c2cccc(S(C)(=O)=O)c2c1=O [Compound P60] | 1 (1=10-20%)
* CS(=O)(=O)c1c(F)ccc2c1c(=O)c(C(=O)O)nn2-c1ccc(OC(F)(F)F)cc1 [Compound P20] | 0 (0=0%)
* CS(=O)(=O)c1cc(Br)cc2c1c(=O)c(C(=O)O)nn2-c1ccc(OC(F)(F)F)cc1 [Compound P13] | 1 (1=10-20%)
* O=C(O)c1nn(-c2ccc(OC(F)(F)F)cc2)c2cccc(S(=O)(=O)C3CC3)c2c1=O [Compound P29] | 0 (0=0%)
